# Test system: intestinal epithelial cell lines T84
# Test summary: Permeability for 4 kD FITC dextran (flux) across T84 monolayers
# Format: cell-based, human
# Condition set: incubations with cytokines (IL-4), 100 μM, 72 hr
Measurement label: Effect on increase of permeability caused by cytokines (in words)

In [3]: df
Out[3]:
                                   compound             observed
0                     CCCCCCCCCCCCCCCC(=O)O                  not
1  CCC=CCC=CCC=CCC=CCC=CC/C=C\CCC(=O)O [DHA, cis-4,7,10,13,16,19 docosahexaenoic acid]  effectively reduced
2          CCC=CCC=CCC=CCC=CCC=CCCCCCC(=O)O  effectively reduced
3             CCCCCC=CCC=CCC=CCC=CCCCC(=O)O  effectively reduced

###

# Test system: intestinal epithelial cell lines T84
# Test summary: Transepithelial resistance (TER) of T84 monolayers
# Assay type: cell-based, human
# Condition set: T84 monolayers, fatty acid 100 μM, 72 hr incubation, IL-4 mediated barrier disruption
Kindly supply the reported Resistance (TER) Disrupted by IL-4 values for the records listed here.

Use these answered entries as a reference point.
>>> print(df.to_string())
                                   molecule                   measurement_label         observed
0  CCC=CCC=CCC=CCC=CCC=CC/C=C\CCC(=O)O [DHA, cis-4,7,10,13,16,19 docosahexaenoic acid]  Resistance (TER) Disrupted by IL-4   328 ± 7 Ω.cm^2
1  CC/C=C\C/C=C\C/C=C\C/C=C\C/C=C\CCCC(=O)O [EPA, eicosapentaenoic acid]  Resistance (TER) Disrupted by IL-4   375 ± 9 Ω.cm^2
2  CCC=CCC=CCC=CCC=CCC=CCCCCCC(=O)O [DPA, 7,10,13,16,19-docosapentaenoic acid]  Resistance (TER) Disrupted by IL-4   368 ± 4 Ω.cm^2
3  CCCCCCCCCCCCCCCC(=O)O [Palmitic acid, palmitic acid]  Resistance (TER) Disrupted by IL-4  272 ± 11 Ω.cm^2

# ---- query molecule ----
Qu. Could you tell me which Resistance (TER) Disrupted by IL-4 is on file for CCCCCC=CCC=CCC=CCC=CCCCC(=O)O [AA, 5,8,11,14-eicosatetraenoic acid] ?
Ans. 337 ± 13 Ω.cm^2
